Each recorded value in this set is attributed to patent EP1019392B1.

Test system: Human tumor cells
Assay: Soft Agar Assay (anchorage-independent growth)
Assay type: cell-based
Conditions: range over 5 tumor cell lines (K ras NIH 3T3, H ras NIH 3T3, HTB 177, A549, HTB 175), read-out: IC50 for each cell line
reported.property: IC50

Query: IC50; subject: NC(=O)N1CCC(CC(=O)N2CCC(C3c4ncc(Br)cc4CCc4cc(Cl)cc(Cl)c43)CC2)CC1 (single isomer, unassigned) [Example 18]
175 to 800 nM

* * *

Target: farnesyl protein transferase (FPT) (Rattus norvegicus, UniProt Q02293+Q04631)
Construct: were partially purified from rat brain by ammonium sulfate fractionation followed by Q-Sepharose; from tissue; host or cells: rat brain
Assay: In vitro enzyme assay: inhibition of farnesyl protein transferase (transfer of [3H]farnesyl to Ras-CVLS)
Format: biochemical
Settings: FPT IC50, Table 1; partially purified rat brain FPT, Ras-CVLS
Would you kindly list pIC50 for each of these molecules?
# pIC50: negative log10 of molar concentration; output just the value

Please report the recorded pIC50 for O=C(Cc1cc[n+]([O-])cc1)N1CCC(C2c3ncc(Br)cc3CCc3cc(Cl)cc(Br)c32)CC1 (stereo not drawn) .
8.52

What about NC(=O)N1CCC(CC(=O)N2CCN(C3c4ncc(Br)cc4CCc4cc(Cl)cc(Br)c43)CC2)CC1 (single isomer, unassigned) [Example 12B] ?
8.60

For O=C(Cc1cc[n+]([O-])cc1)N1CCC(C2c3ccc(Cl)c(Br)c3CCc3cc(Br)cnc32)CC1 (stereo not drawn) [Example 14B] then?
8.30

* * *

System: SW620-BAG human colon carcinoma cells expressing an activated K-ras gene
Assay: Cell Mat Assay, SW620 tumor cells
Type: cell-based
Details: Homo sapiens, SW-620, Mat assay
reported.property: IC50 (µM)
The response must be a number in µM with no trailing unit.

API: value(readout= IC50, system= SW620-BAG human colon carcinoma cells expressing an activated K-ras gene, query= NC(=O)N1CCC(CC(=O)N2CCN(C3c4ncc(Br)cc4CCc4cc(Cl)cc(Br)c43)CC2)CC1 (single isomer, unassigned) [Example 12A] )
4

Then what about the compound NC(=O)N1CCC(CC(=O)N2CCN([C@H]3c4ccc(Cl)cc4CCc4cc(Br)cnc43)CC2)CC1 [Example 17A] ?
18

Now consider O=C(Cc1cc[n+]([O-])cc1)N1CCC([C@H]2c3ncc(Br)cc3CCc3cc(Cl)cc(Br)c32)CC1 [Example 9] and answer again.
6.25

Same question, NC(=O)N1CCC(CC(=O)N2CCC(=C3c4ncc(Br)cc4CCc4cc(Cl)cc(Br)c43)CC2)CC1 (racemic) [Example 8] this time
3.1

Repeat for the following compound: NC(=O)N1CCC(CC(=O)N2CCC(=C3c4ncc(Br)cc4CCc4cc(Cl)cc(Br)c43)CC2)CC1 (single isomer, unassigned) [Example 8A]
3.1

* * *

Test system: Human tumor cells
Assay: Soft Agar Assay (anchorage-independent growth)
Assay type: cell-based
Details: range over 19 tumor cell lines (K ras NIH 3T3, H ras NIH 3T3, HTB 177, HTB 173, A549, HTB 175, HTB 119, HTB 183, HPAF II, MCF-7, HBL100, Du4475, MDA MB 468, DU 145, MDA MB453, BT474, PC3, DLD I, AsPc-1), read-out: IC50 for each cell line
reported.property: IC50

Can you look up IC50 on Human tumor cells for NC(=O)N1CCC(CC(=O)N2CCC(C3c4ncc(Br)cc4CCc4cc(Cl)cc(Br)c43)CC2)CC1 (stereo not shown) [Example 10] ?
40 to 3000 nM

* * *

Biological target: farnesyl protein transferase (FPT) (Rattus norvegicus, UniProt Q02293+Q04631)
Construct: were partially purified from rat brain by ammonium sulfate fractionation followed by Q-Sepharose; from tissue; host or cells: rat brain
Experiment: In vitro enzyme assay: inhibition of farnesyl protein transferase (transfer of [3H]farnesyl to Ras-CVLS)
Type: biochemical
Settings: Table 1; partially purified rat brain FPT, Ras-CVLS; read-out: FPT IC50
Procedure: • 1. In vitro enzyme assays: Inhibition of farnesyl protein transferase and geranylgeranyl protein transferase. […] Human farnesyl protein transferase was also expressed in E. coli, using cDNA clones encoding both the a and b subunits. […] Human farnesyl protein transferase was partially-purified from the soluble protein fraction of E. coli as described above. […] Percent inhibition was calculated relative to the DMSO vehicle control. […]
Please provide measured IC50 for the entries that follow.
// return numeric value only (unit: nM, not printed)

# get_value(readout= IC50, system= farnesyl protein transferase (FPT) (Rattus norvegicus, UniProt Q02293+Q04631)) for O=C(Cc1cc[n+]([O-])cc1)N1CCC(=C2c3ncc(Br)cc3CCc3cc(Cl)cc(Br)c32)CC1 (racemic) [Example 7]
12

Same thing, different compound: O=C(Cc1cc[n+]([O-])cc1)N1CCN([C@H]2c3ccc(Cl)c(Br)c3CCc3cc(Br)cnc32)CC1 [Example 5]
2.3

Now give it for NC(=O)N1CCC(CC(=O)N2CCC(=C3c4ccc(Cl)c(Br)c4CCc4cc(Br)cnc43)CC2)CC1 (racemic) [Example 15] too.
22

// repeat for NC(=O)N1CCC(CC(=O)N2CCC(C3c4ncc(Br)cc4CCc4cc(Cl)cc(Cl)c43)CC2)CC1 (single isomer, unassigned) [Example 18] and report
3.1

* * *

Provide the recorded IC50 for the entries that follow.
Biological target: geranylgeranyl protein transferase (GGPT) I (Rattus norvegicus, UniProt P53610+Q04631)
Construct: geranylgeranyl protein transferase (GGPT) I were partially purified from rat brain; from tissue; host or cells: rat brain
Experiment: In vitro enzyme assay: inhibition of geranylgeranyl protein transferase I (Ras-CVLL as acceptor)
Assay type: biochemical
Conditions: Table 2; Ras-CVLL as isoprenoid acceptor

Fill in the blank: the reported IC50 of O=C(Cc1cc[n+]([O-])cc1)N1CCN([C@H]2c3ncc(Br)cc3CCc3cc(Cl)cc(Br)c32)CC1 [Example 11A] is ____.
> 66 µM

Now try NC(=O)N1CCC(CC(=O)N2CCC(C3c4ccc(Cl)cc4CCc4cc(Br)cnc43)CC2)CC1 (centres unmarked) [Example 4] .
> 35.7 µM

Same for NC(=O)N1CCC(CC(=O)N2CCC(=C3c4ncc(Br)cc4CCc4cc(Cl)cc(Br)c43)CC2)CC1 (single isomer, unassigned) [Example 8B]
> 60 µM

Queued: NC(=O)N1CCC(CC(=O)N2CCC(C3c4ncc(Br)cc4CCc4cc(Cl)cc(Cl)c43)CC2)CC1 (single isomer, unassigned) [Example 18]
> 50 µM

O=C(Cc1cc[n+]([O-])cc1)N1CCC([C@H]2c3ncc(Br)cc3CCc3cc(Cl)cc(Br)c32)CC1 [Example 9] , same question.
> 59 µM

* * *

Consider the following compounds; for each one, report its IC50.
Tested on: DLD-1-BAG human colon carcinoma cells expressing as activated K-ras gene
Test: Cell Mat Assay, DLD-1 tumor cells
Type: cell-based
Conditions: Homo sapiens, DLD-1, Mat assay
# unit: µM | format: bare number

Field request: IC50 | item: NC(=O)N1CCC(CC(=O)N2CCN([C@H]3c4ccc(Cl)cc4CCc4cc(Br)cnc43)CC2)CC1 [Example 17A]
4

Next entry: NC(=O)N1CCC(CC(=O)N2CCN([C@H]3c4ccc(Cl)c(Br)c4CCc4cc(Br)cnc43)CC2)CC1 [Example 6]
4

Then what about the compound NC(=O)N1CCC(CC(=O)N2CCC(C3c4ccc(Cl)c(Br)c4CCc4cc(Br)cnc43)CC2)CC1 (single isomer, unassigned) [Example 13A] ?
6.25

* * *

Biological target: farnesyl protein transferase (FPT) (Rattus norvegicus, UniProt Q02293+Q04631)
Construct: were partially purified from rat brain by ammonium sulfate fractionation followed by Q-Sepharose; from tissue; host or cells: rat brain
Experiment: In vitro enzyme assay: inhibition of farnesyl protein transferase (transfer of [3H]farnesyl to Ras-CVLS)
Format: biochemical
Details: FPT IC50, Table 1; partially purified rat brain FPT, Ras-CVLS
For each entry below, report its IC50 value.

So what's the measured IC50 for this one? O=C(Cc1cc[n+]([O-])cc1)N1CCC(=C2c3ncc(Br)cc3CCc3cc(Cl)cc(Br)c32)CC1 (single isomer, unassigned) [Example 7A]
> 100 nM

Quick one: O=C(Cc1cc[n+]([O-])cc1)N1CCC(=C2c3ncc(Br)cc3CCc3cc(Cl)cc(Br)c32)CC1 (single isomer, unassigned) [Example 7B]
< 3 nM

Likewise for NC(=O)N1CCC(CC(=O)N2CCN(C3c4ncc(Br)cc4CCc4cc(Cl)cc(Br)c43)CC2)CC1 (single isomer, unassigned) [Example 12A] ?
> 94 nM

* * *

Biological target: farnesyl protein transferase (FPT) (Rattus norvegicus, UniProt Q02293+Q04631)
Construct: were partially purified from rat brain by ammonium sulfate fractionation followed by Q-Sepharose; from tissue; host or cells: rat brain
Assay: In vitro enzyme assay: inhibition of farnesyl protein transferase (transfer of [3H]farnesyl to Ras-CVLS)
Assay type: biochemical
Settings: Table 1; partially purified rat brain FPT, Ras-CVLS; read-out: FPT IC50
Procedure: • 1. In vitro enzyme assays: Inhibition of farnesyl protein transferase and geranylgeranyl protein transferase. […] Human farnesyl protein transferase was also expressed in E. coli, using cDNA clones encoding both the a and b subunits. […] Human farnesyl protein transferase was partially-purified from the soluble protein fraction of E. coli as described above. […] Percent inhibition was calculated relative to the DMSO vehicle control. […]
Where a name gives a salt, the structure may show the parent alone.
reported.property: IC50

// returns reported IC50 for input O=C(Cc1cc[n+]([O-])cc1)N1CCN([C@@H]2c3ncc(Br)cc3CCc3cc(Cl)cc(Br)c32)CC1 [Example 11B]
> 95 nM

And O=C(Cc1cc[n+]([O-])cc1)N1CCN(C2c3ncc(Br)cc3CCc3cc(Cl)cc(Cl)c32)CC1 (single isomer, unassigned) ?
< 3.8 nM

How about O=C(Cc1cc[n+]([O-])cc1)N1CCC(C2c3ccc(Cl)c(Br)c3CCc3cc(Br)cnc32)CC1 (stereo not shown) [14A • HCl salt] ?
< 3.1 nM

Now consider NC(=O)N1CCC(CC(=O)N2CCC(C3c4ccc(Cl)cc4C=Cc4cc(Br)cnc43)CC2)CC1 (stereo not shown) .
< 34 nM
